Study the reported IC50 values for Insulin-like growth factor 1 receptor (Homo sapiens, UniProt P08069) given below; they originate from different publications.

> print(dat)
                                   compound  test.result
1  COc1cccc(OCC(O)CNc2cc[nH]c(=O)c2-c2nc3cc4c(cc3[nH]2)C(=O)N(C2CCN(C)CC2)C4=O)c1 (stereo not shown)     < 500 nM

(Q) Provide the documented IC50 with Insulin-like growth factor 1 receptor (Homo sapiens, UniProt P08069) as the system for "CN1CCC(N2Cc3cc4nc(-c5c(NC[C@@H](O)c6cccc(Cl)c6)cc[nH]c5=O)[nH]c4cc3C2=O)CC1"
(A) < 500 nM

(Q) Provide the documented IC50 with Insulin-like growth factor 1 receptor (Homo sapiens, UniProt P08069) as the system for CN1CCC(N2C(=O)c3cc4nc(-c5c(NNC(=O)C(O)c6ccccc6)ccnc5O)[nH]c4cc3C2=O)CC1 (stereo not shown)
(A) > 15000 nM

(Q) Provide the documented IC50 with Insulin-like growth factor 1 receptor (Homo sapiens, UniProt P08069) as the system for "COc1ccc(-c2cnc3[nH]ccc3c2)cc1OC"
(A) ≤ 10000 nM

(Q) Provide the documented IC50 with Insulin-like growth factor 1 receptor (Homo sapiens, UniProt P08069) as the system for "CN1CCC(N2Cc3cc4[nH]c(-c5c(NC[C@@H](O)COc6cc(F)c(F)cc6Br)cc[nH]c5=O)nc4cc3C2=O)CC1"
(A) < 500 nM

(Q) Provide the documented IC50 with Insulin-like growth factor 1 receptor (Homo sapiens, UniProt P08069) as the system for "Cc1ccc(Cl)cc1OC[C@H](O)CNc1ccnc(O)c1-c1nc2cc3c(cc2[nH]1)C(=O)N(C1CCN(C)CC1)C3=O"
(A) < 500 nM

(Q) Provide the documented IC50 with Insulin-like growth factor 1 receptor (Homo sapiens, UniProt P08069) as the system for "COc1cc(-c2ccccc2F)nc2c(F)c(-c3nn([C@H]4C[C@@](C)(O)C4)c(N)c3C(N)=O)ccc12"
(A) ≤ 100 nM

(Q) Provide the documented IC50 with Insulin-like growth factor 1 receptor (Homo sapiens, UniProt P08069) as the system for Cc1ccc(OCC(O)CNc2cc[nH]c(=O)c2-c2nc3cc4c(cc3[nH]2)C(=O)N(C2CCN(C)CC2)C4=O)cc1C (stereo not shown)
(A) 500 to 5000 nM

(Q) Provide the documented IC50 with Insulin-like growth factor 1 receptor (Homo sapiens, UniProt P08069) as the system for "CN1CCC(N2Cc3cc4nc(-c5c(NC[C@@H](O)COc6cccc(C(F)(F)F)c6Cl)cc[nH]c5=O)[nH]c4cc3C2=O)CC1"
(A) < 500 nM

(Q) Provide the documented IC50 with Insulin-like growth factor 1 receptor (Homo sapiens, UniProt P08069) as the system for "Cc1c(Cl)cccc1OC[C@H](O)CNc1cc[nH]c(=O)c1-c1nc2cc3c(cc2[nH]1)C(=O)N(C1CCN(CCCO)CC1)C3=O"
(A) < 500 nM

(Q) Provide the documented IC50 with Insulin-like growth factor 1 receptor (Homo sapiens, UniProt P08069) as the system for Cc1ccc(OCC(O)CNc2ccnc(O)c2-c2nc3cc4c(cc3[nH]2)C(=O)N(CCCn2cccn2)C4=O)c(C)c1 (stereo not shown)
(A) > 15000 nM

(Q) Provide the documented IC50 with Insulin-like growth factor 1 receptor (Homo sapiens, UniProt P08069) as the system for "O=C1c2cc3nc(-c4c(NC[C@@H](O)c5cccc(Cl)c5)cc[nH]c4=O)[nH]c3cc2C(=O)N1CCc1cccnc1"
(A) > 15000 nM

(Q) Provide the documented IC50 with Insulin-like growth factor 1 receptor (Homo sapiens, UniProt P08069) as the system for "CCc1c(OC[C@H](O)CNc2cc[nH]c(=O)c2-c2nc3cc4c(cc3[nH]2)CN(C2CCN(C)CC2)C4=O)ccc2c1OCO2"
(A) < 500 nM
